# METHOD_DESCRIPTION: Antiproliferative activity against human GBM2 cells assessed as reduction in cell viability incubated for 72 hrs by WST-1 method
# Assay type: functional, cell-based
# APPLIED_CONDITIONS: GBM2, 72 h
Reported values of pIC50 for individual entries
The read-out pIC50 is expressed as -log10 of concentration in moles per litre.

Example cases with answers are listed next.
COMPOUND: O=C(Nc1cccc(Cl)c1)Nc1cc2ncncc2cc1OCc1ccccc1Cl
pIC50: 5.68
--
COMPOUND: O=C(Nc1ccc(C(F)(F)F)cc1)Nc1cc2ncncc2cc1OCc1cccc(F)c1
pIC50: 5.49
--
COMPOUND: O=C(Nc1ccccc1F)Nc1cc2ncncc2cc1OCc1cccc(F)c1
pIC50: 5.19
--
COMPOUND: COc1cc([C@@H]2c3cc4c(cc3[C@@H](O[C@@H]3O[C@@H]5CO[C@@H](C)O[C@H]5[C@H](O)[C@H]3O)[C@H]3COC(=O)[C@H]23)OCO4)cc(OC)c1O [ETOPOSIDE]
pIC50: 5.96

Could you now consider this next compound?
input: Would you kindly share the measured pIC50 for O=C(Nc1cccc(Cl)c1)Nc1cc2ncncc2cc1OCc1ccccc1 ?
output: 5.39

* * *

Catalogue of Ratio IC50 readings, one per entry.
# METHOD_DESCRIPTION: Selectivity index, ratio of IC50 for normal human astrocytes to IC50 for human GBM1 cells
Just the number, please.

CHEMICAL_SMILES: O=C(Nc1ccccc1F)Nc1cc2ncncc2cc1OCc1ccccc1F
Ratio IC50: 2.6

We next turn to a different compound, shown below.
input: Given the compound O=C(Nc1cccc(Cl)c1)Nc1cc2ncncc2cc1OCc1ccccc1 , what is its reported Ratio IC50?
output: 1.4

* * *

# STUDY_SYSTEM: Translocator protein (Rattus norvegicus)
# METHOD_DESCRIPTION: Displacement of [3H]PK11195 from TSPO receptor in Sprague-Dawley rat cerebral cortex membrane at 10 nM by radiometric competitive assay
# Assay type: tissue-based
Reported inhibition values follow for various compounds
Answer in %, number only, no unit symbol.

input: So what does the record say about inhibition for CCC(C)N(C)C(=O)c1cc2ccccc2c(-c2ccccc2Cl)n1 (configuration not stated) ?
output: 45

input: Now consider O=C(Nc1ccc(Cl)c(Cl)c1)Nc1cc2ncncc2cc1OCc1cccc(F)c1 .
output: 8

input: Please do the same for CN1C(=O)CN=C(c2ccccc2)c2cc(Cl)ccc21 as well.
output: 2

input: Param item: O=C(Nc1cccc(Cl)c1)Nc1cc2ncncc2cc1OCc1ccccc1Cl
output: 6

input: Then what about the compound O=C(Nc1cc2ncncc2cc1OCc1cccc(Cl)c1)Nc1cccc2ccccc12 ?
output: 2

input: Would you kindly repeat that for O=C(Nc1ccc(Cl)c(Cl)c1)Nc1cc2ncncc2cc1OCc1ccccc1Cl ?
output: 19

input: Same again, this time with O=C(Nc1cc2ncncc2cc1OCc1cccc(F)c1)Nc1cccc2ccccc12
output: 9

* * *

# STUDY_SYSTEM: Translocator protein (Rattus norvegicus) (UniProt P16257)
# METHOD_DESCRIPTION: Displacement of [3H]PK11195 from TSPO receptor in Sprague-Dawley rat cerebral cortex membrane at 1 nM by radiometric competitive assay
# Type: tissue-based
y means recorded inhibition is 3% or above; n means it is below 3%.

Answered cases to consult:
COMPOUND: CCC(C)N(C)C(=O)c1cc2ccccc2c(-c2ccccc2Cl)n1 (stereo unspecified)
STUDY_SYSTEM: Translocator protein (Rattus norvegicus) (UniProt P16257)
ASSIGNED_CATEGORY: y

COMPOUND: O=C(Nc1cccc(Cl)c1)Nc1cc2ncncc2cc1OCc1ccccc1Cl
STUDY_SYSTEM: Translocator protein (Rattus norvegicus) (UniProt P16257)
ASSIGNED_CATEGORY: n

COMPOUND: O=C(Nc1ccc(Cl)c(Cl)c1)Nc1cc2ncncc2cc1OCc1ccccc1Cl
STUDY_SYSTEM: Translocator protein (Rattus norvegicus) (UniProt P16257)
ASSIGNED_CATEGORY: n

input: Quick check: does CN1C(=O)CN=C(c2ccccc2)c2cc(Cl)ccc21 have inhibition greater than or equal to 3%?
output: n
